- TEST_TARGET: Dopamine receptors; D2 & D3 (Homo sapiens) (UniProt P14416+P35462)
- METHOD_NOTES: Ratio of D3 receptor to the D2 receptor
- Assay type: protein assay
ASSAY_METRIC: Ratio

Field: example entries. Status: answers known.
CCS(=O)(=O)c1ccc(OC)c(-c2ccc(CN3CCCCCC3c3cccc(OC)c3)[nH]2)c1 (stereo not given) : 15
CCS(=O)(=O)c1ccc(OC)c(-c2ccc(CN3CCCCCC3c3ccccc3C)[nH]2)c1 (stereo not given) : 10

(P) CCN(Cc1cccc(C)c1)Cc1ccc(-c2cc(S(=O)(=O)CC)ccc2OC)[nH]1
(Q) CCN(Cc1cccc(OC)c1)Cc1ccc(-c2cc(S(=O)(=O)CC)ccc2OC)[nH]1
(R) CCN(Cc1ccc(Cl)cc1)Cc1ccc(-c2cc(S(=O)(=O)CC)ccc2OC)[nH]1
Rank items: key Ratio, increasing. # output: labels, in the requested order
R, P, Q
